- SYSTEM UNDER TEST: GCN2 kinase (Homo sapiens, UniProt Q9P2K8)
- Sequence (Q9P2K8 whole entry): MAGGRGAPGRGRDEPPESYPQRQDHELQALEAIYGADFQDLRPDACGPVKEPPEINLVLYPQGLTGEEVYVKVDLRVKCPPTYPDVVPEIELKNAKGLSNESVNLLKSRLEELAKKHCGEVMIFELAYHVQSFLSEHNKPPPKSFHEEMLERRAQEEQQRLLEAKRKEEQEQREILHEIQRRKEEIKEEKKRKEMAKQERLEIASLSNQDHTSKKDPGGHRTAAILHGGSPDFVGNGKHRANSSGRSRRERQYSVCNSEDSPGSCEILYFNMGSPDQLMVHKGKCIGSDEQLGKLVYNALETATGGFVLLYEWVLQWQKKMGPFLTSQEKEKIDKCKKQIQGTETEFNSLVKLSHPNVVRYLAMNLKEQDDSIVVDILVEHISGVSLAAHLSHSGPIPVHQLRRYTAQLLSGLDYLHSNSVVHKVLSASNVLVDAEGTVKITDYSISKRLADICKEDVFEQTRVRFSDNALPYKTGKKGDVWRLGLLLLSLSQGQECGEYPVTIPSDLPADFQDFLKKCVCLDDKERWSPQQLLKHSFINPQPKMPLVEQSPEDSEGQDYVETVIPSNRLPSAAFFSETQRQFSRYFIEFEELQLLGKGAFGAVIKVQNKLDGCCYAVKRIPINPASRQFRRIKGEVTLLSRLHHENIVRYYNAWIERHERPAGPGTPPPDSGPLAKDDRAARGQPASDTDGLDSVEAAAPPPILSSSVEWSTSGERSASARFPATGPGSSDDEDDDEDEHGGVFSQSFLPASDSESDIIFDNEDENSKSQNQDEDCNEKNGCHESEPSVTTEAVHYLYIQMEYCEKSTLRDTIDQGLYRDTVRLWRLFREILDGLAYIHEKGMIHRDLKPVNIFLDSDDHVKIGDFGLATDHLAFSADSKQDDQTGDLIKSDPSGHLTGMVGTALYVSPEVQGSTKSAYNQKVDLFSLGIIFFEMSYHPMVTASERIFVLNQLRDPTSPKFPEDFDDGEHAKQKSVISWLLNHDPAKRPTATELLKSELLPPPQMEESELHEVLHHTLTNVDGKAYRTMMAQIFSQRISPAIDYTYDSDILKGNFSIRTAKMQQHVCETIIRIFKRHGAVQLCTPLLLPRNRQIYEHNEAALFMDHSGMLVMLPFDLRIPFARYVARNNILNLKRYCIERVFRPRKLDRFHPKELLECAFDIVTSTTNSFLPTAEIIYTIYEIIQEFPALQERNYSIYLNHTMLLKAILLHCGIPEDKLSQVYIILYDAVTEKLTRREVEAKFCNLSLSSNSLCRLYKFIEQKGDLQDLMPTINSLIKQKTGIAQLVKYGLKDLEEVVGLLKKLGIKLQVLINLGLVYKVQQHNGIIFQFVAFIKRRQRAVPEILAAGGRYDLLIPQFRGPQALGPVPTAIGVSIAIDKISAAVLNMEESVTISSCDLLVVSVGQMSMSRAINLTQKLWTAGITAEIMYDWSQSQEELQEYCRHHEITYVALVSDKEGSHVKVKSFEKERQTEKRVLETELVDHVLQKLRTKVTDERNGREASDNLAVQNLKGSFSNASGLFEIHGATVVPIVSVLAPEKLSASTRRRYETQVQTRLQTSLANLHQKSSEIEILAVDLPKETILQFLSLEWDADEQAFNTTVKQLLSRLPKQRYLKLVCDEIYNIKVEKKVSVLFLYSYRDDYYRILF
- ASSAY NAME: GCN2 enzyme inhibition assay (Transcreener ADP2 fluorescence polarization)
- Type: biochemical
- EXPERIMENTAL SETUP: compounds of Formula II; 280 μM ATP, 4 nM GCN2 kinase
pKi: −log10 of the molar value.
MEASURE NAME: pKi

Input line: # query: pKi of entry CC1CN(c2ccnc(-c3cnc4ccc(C(F)F)nn34)c2)CC(CNS(C)(=O)=O)O1 (centres unmarked)
Output line: > 8.00

Input line: Now this one: NS(=O)(=O)N1CCOC2(CN(c3cc(-c4cnc5ccc(C(F)F)nn45)ncn3)C2)C1
Output line: 6.00 to 8.00

Input line: Now this one: CC1CC(F)(F)C(CNS(C)(=O)=O)CN1c1cc(-c2cnc3ccc(C(F)F)nn23)ncn1 (centres unmarked) [II-433]
Output line: > 8.00

====

- SYSTEM UNDER TEST: intracellular GCN2 (phosphorylation of the GCN2 substrate eIF2α) (Homo sapiens, UniProt Q9P2K8)
- Sequence (Q9P2K8 whole entry): as above
- ASSAY NAME: GCN2 cellular inhibition assay (AlphaScreen SureFire P-eIF2α Ser51, borrelidin-treated U2OS cells)
- Type: cell-based
- EXPERIMENTAL SETUP: compounds of Formula IV; biomarker assay, phosphorylated eIF2α Ser51 in borrelidin-treated U2OS cells
pIC50: −log10 of the molar value.
MEASURE NAME: pIC50

{"COMPOUND": "CCN1CCN(c2ccnc(-c3cnc4cnc(Br)cn34)n2)[C@@H](C)[C@H]1c1cn[nH]c1 (single isomer, unassigned) [IV-402]", "pIC50": "> 6.30"}
{"COMPOUND": "CS(=O)(=O)NCC1CCN(c2ccnc(-c3cnc4cnc(Br)cn34)n2)C1 (centres unmarked) [IV-27]", "pIC50": "5.30 to 6.30"}
{"COMPOUND": "CC1CN(c2ccnc(-c3cnc4cnc(Cl)cn34)n2)CC(c2cn[nH]c2)O1 (single isomer, unassigned) [IV-192]", "pIC50": "5.30 to 6.30"}
{"COMPOUND": "C[C@H]1C[C@H](c2c[nH]nc2F)CN(c2ccnc(-c3cnc4cnc(C(F)(F)F)cn34)n2)C1 [IV-764]", "pIC50": "> 6.30"}
{"COMPOUND": "CS(=N)(=O)CC1CCCN(c2ccnc(-c3cnc4cnc(C(F)(F)F)cn34)n2)C1 (centres unmarked) [IV-34]", "pIC50": "< 5.30"}
{"COMPOUND": "CC1CN(c2cc(F)cc(-c3cnc4cnc(C(F)(F)F)cn34)n2)C(C)C(c2cn[nH]c2)N1 (centres unmarked) [IV-690]", "pIC50": "5.30 to 6.30"}
{"COMPOUND": "NC(=O)CCC1CCCN(c2ccnc(-c3cnc4cnc(C(F)F)cn34)n2)C1 (centres unmarked) [IV-45]", "pIC50": "< 5.30"}

Input line: # query: pIC50 of entry CC(=O)N1CCN(c2ccnc(-c3cnc4cnc(C(F)(F)F)cn34)n2)CC1 [IV-24]
Output line: < 5.30

====

- SYSTEM UNDER TEST: GCN2 kinase (Homo sapiens, UniProt Q9P2K8)
- ASSAY NAME: GCN2 enzyme inhibition assay (Transcreener ADP2 fluorescence polarization)
- Assay type: biochemical
- EXPERIMENTAL SETUP: compounds of Formula II; 280 μM ATP, 4 nM GCN2 kinase
pKi: −log10 of the molar value.
The entries below are paired with their reported pKi.

Input line: # query: pKi of entry CS(=O)(=O)N1CC2(CCCN(c3cncc(-c4cnc5ccc(C(F)F)nn45)c3)C2)C1
Output line: > 8.00
